// data source = a melting point compilation (Tetko et al.; mined from patent text by program, amines drawn as free bases though some values may be those of a salt)

readout-type: melting point

Check out these entries, answers already filled in.
| compound | experimental-result |
| --- | --- |
| N#Cc1ccc([C@@H]2[C@@H]3C(=O)N(Cc4ccccc4)C(=O)[C@@H]3[C@H]3CCCN32)cc1 (racemic) | 191 to 193 °C |
| O=[N+]([O-])c1cc(N2CCNCC2)ccc1S(=O)(=O)c1ccccc1 | 180 to 182 °C |
| Cc1cccc(OC(C)C)c1S(N)(=O)=O | 78 °C |
| Cc1c(Cc2ccc(F)c(Cl)c2)sc2c(-c3cccc(C(=O)NCCO)c3)cccc12 | 146 to 147 °C |
| CC(=O)c1cc(C(N)=O)c(=O)[nH]c1C | > 320 °C |
| Nc1ncc(-c2ccc([N+](=O)[O-])cc2-c2cccc(Cl)c2Cl)c(N)n1 | 237 to 239 °C |
| O=C(Nc1nccs1)C1CSc2sccc2C1=O (stereo not given) | 201 to 203 °C |
| O=C1NCCc2sccc21 | 94 °C |

Query: # query: melting point of entry `Cc1cc(Oc2c(Cl)cc(C(F)(F)F)cc2Cl)nn1C(=O)NCc1ccccc1`
Response: 50 to 53 °C

Query: Fill blank: measured melting point of the compound `CCOC(=O)c1c(-c2ccccc2)c2c3ccccc3ccn2c1C(C)C` is ____.
Response: 82 to 84 °C

###

readout-type: melting point

Reference set, count: 2
| molecule | melting point |
| --- | --- |
| CC1(C)C(=O)Nc2cc3[nH]c(-c4ccco4)nc3cc21 | 311 to 316 °C |
| CN1CCCCC1COC(=O)c1cccc(NC(=O)C(CS)Cc2ccccc2)c1 (stereo unspecified) | 68 to 69 °C |

Query: Find the recorded melting point belonging to Oc1ccc2c(c1)OC(c1ccc(OCCN3CCCCC3)cc1)c1c-2ccc2cc(O)ccc12 (stereo unspecified) and report it.
Response: 158 to 161 °C

Query: Fill blank: measured melting point of the molecule CC(OC1CCCCO1)C(O)(Cn1cncn1)c1ccc(F)cc1F (stereo unspecified) is ____.
Response: 93 to 95 °C

Query: Value lookup for melting point; key = `N#Cc1ncn2c1[C@@H]1CCN1C(=O)c1c(Br)cccc1-2`
Response: 133 to 136 °C

Query: # query: melting point of entry `COc1nc(C(F)(F)F)cc(=O)n1-c1cc(OC(C)C)c(Cl)cc1F`
Response: 117 to 119 °C

Query: # melting point lookup, item `CCOC(=O)/C(C)=C/c1ccc(Br)cc1`
Response: 82 °C

###

readout-type: melting point

| molecule | melting point |
| --- | --- |
| COc1ccc(C(=O)Nc2ccccc2)cc1NC(=S)Nc1cccc(C(C)=O)c1 | 176 to 177 °C |
| c1ccc(NC(Nc2ccccc2)Nc2ccccc2)cc1 | 138 to 139 °C |
| O=C(c1ccncc1)N1CCC(=C2c3ccccc3CCn3ccnc32)CC1 | 207 to 209 °C |
| O=C1C=C(Oc2ccc(C(F)(F)F)cc2)C(O)O1 (stereo not given) | 87 to 89 °C |
| CCC(C)N(C)C(=O)c1nc(-c2ccccc2)c2ccccc2n1 (stereo not given) | 128 °C |

Query: Entry under review: `Cc1oc(-c2ccccc2)nc1C(=O)COc1ccc(C#N)cc1` . Reported melting point?
Response: 202 to 203 °C

Query: Need melting point of `CCOC(=O)c1nc2cccc(F)c2nc1C` , thanks.
Response: 87 to 89 °C

Query: Entry `COCC(=O)N[C@H]1CC[C@H](CCN2CCC(c3cccc4c3CCO4)CC2)CC1` : reported melting point = ?
Response: 156 °C

Query: Which melting point is reported for this molecule? O=C(NCC(F)(F)F)c1nn(-c2ccc(F)cc2F)c2c1C1CCC2C1 (stereo not given)
Response: 149 to 152 °C

Query: For the molecule CC(C)Oc1nc(N)nc2c1ncn2C1C=CC(CO)C1 (stereo not given) , what melting point is on record?
Response: 188 to 191 °C
